molecular target: RPS6KA3 KD1 KD2 (human) (UniProt P51812); assay: radiometric filter-binding kinase assay; details: compound 1.0 µM
Sequence (P51812 whole entry, looked up): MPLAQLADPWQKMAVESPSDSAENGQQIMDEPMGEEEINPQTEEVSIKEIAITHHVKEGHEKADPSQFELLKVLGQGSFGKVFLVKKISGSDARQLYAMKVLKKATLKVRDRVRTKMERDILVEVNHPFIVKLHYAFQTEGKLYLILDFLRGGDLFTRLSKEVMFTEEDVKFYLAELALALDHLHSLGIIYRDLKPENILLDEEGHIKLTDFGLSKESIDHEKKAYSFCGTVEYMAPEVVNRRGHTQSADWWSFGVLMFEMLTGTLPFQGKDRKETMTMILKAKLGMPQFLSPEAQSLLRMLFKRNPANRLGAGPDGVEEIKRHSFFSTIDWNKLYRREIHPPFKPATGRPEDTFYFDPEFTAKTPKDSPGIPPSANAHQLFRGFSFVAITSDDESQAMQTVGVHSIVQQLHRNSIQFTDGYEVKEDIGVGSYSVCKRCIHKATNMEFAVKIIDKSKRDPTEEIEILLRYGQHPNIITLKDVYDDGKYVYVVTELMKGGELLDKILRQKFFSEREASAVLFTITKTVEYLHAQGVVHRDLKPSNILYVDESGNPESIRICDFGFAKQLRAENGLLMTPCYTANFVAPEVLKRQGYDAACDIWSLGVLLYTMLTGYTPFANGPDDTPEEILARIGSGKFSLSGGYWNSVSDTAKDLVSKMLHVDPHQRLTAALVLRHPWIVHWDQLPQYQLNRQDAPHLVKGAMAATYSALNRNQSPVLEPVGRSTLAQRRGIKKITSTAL
readout-kind: residual activity (%)
Your answer should be a plain number; it is taken to be in %.

{"molecule": "O=C(Nc1nc2cc(C(F)(F)F)cc(NC3CC3)n2n1)c1cccnc1", "test-system": "RPS6KA3 KD1 KD2 (human) (UniProt P51812)", "units-symbol": "%", "residual activity": 89}

Request: Write down residual activity measured for item Cc1ccc(-c2ccc3c(ccc4sc5c(c43)NC[C@@H](C)NC5=O)n2)cn1
Response: 79

Request: Write down residual activity measured for item O=C(NOCC(O)CO)c1ccc(F)c(F)c1Nc1ccc(I)cc1Cl (configuration not stated)
Response: 98

Request: Write down residual activity measured for item NC1(c2ccc(-c3nc4ccn5c(=O)[nH]nc5c4cc3-c3ccccc3)cc2)CCC1
Response: 90

Request: Write down residual activity measured for item Cn1nc(Nc2ccc(F)cc2)c2c(N)ncnc21
Response: 110

Request: Write down residual activity measured for item COc1cc(O)c2c(c1)/C=C/C[C@H](O)[C@H](O)C(=O)/C=C\C[C@H](C)OC2=O
Response: 70

Request: Write down residual activity measured for item O=C(O)c1cc(N=Nc2ccc(S(=O)(=O)Nc3ccccn3)cc2)ccc1O
Response: 97

====

tested on: RPS6KB1 (human), P23443 [T412E]; assay: radiometric filter-binding kinase assay; details: compound 1.0 µM
Sequence (P23443 whole entry T412E, looked up): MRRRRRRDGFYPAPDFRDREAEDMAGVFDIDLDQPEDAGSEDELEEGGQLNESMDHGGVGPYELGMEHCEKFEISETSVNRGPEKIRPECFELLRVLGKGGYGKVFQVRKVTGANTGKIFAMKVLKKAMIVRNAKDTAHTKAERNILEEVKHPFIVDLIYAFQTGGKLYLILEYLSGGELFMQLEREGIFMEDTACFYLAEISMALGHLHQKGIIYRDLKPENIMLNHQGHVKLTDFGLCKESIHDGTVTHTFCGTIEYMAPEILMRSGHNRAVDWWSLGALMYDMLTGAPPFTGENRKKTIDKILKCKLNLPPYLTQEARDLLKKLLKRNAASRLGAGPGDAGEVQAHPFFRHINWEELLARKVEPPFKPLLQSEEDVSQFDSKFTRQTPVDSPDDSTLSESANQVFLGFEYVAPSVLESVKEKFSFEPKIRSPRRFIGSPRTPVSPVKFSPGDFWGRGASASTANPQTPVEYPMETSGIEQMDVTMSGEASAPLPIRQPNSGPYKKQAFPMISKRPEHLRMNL
readout-kind: residual activity (%)
Your answer should be a plain number; it is taken to be in %.

{"compound": "COc1ccc(N(C(=O)Nc2c(C)cccc2C)c2cc(Nc3ccc(N4CCN(C)CC4)cc3)ncn2)c(OC)c1", "residual activity, %": 93}
{"compound": "CN(C)C/C=C/C(=O)Nc1cccc(C(=O)Nc2ccc(Nc3nccc(-c4cccnc4)n3)cc2)c1", "residual activity, %": 112}
{"compound": "O=C(Nc1ccccc1-c1cn2c(CN3CCNCC3)csc2n1)c1cnc2ccccc2n1", "residual activity, %": 111}
{"compound": "O=C(NOC[C@H](O)CO)c1ccc(F)c(F)c1Nc1ccc(I)cc1Cl", "residual activity, %": 97}
{"compound": "NCC(=O)Nc1ccc(-n2nc(C(F)(F)F)cc2-c2ccc3c(ccc4ccccc43)c2)cc1", "residual activity, %": 86}

Request: Write down residual activity measured for item Oc1ccc2ccccc2c1SSc1c(O)ccc2ccccc12
Response: 56

Request: Write down residual activity measured for item Nc1cccc2c1CN(C1CCC(=O)NC1=O)C2=O (stereo not given)
Response: 94

====

molecular target: NEK6 (human) (UniProt Q9HC98); experiment: radiometric filter-binding kinase assay; conditions: compound 1.0 µM
Sequence (Q9HC98 whole entry, looked up): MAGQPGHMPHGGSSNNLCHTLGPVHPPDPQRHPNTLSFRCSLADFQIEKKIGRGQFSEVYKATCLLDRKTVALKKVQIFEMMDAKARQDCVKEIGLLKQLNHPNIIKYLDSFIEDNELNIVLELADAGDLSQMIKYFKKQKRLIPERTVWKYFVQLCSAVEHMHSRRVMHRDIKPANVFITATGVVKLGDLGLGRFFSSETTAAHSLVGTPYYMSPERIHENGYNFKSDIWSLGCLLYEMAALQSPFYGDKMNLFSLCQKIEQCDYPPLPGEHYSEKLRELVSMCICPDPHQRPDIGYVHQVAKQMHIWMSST
Below, each of the compounds is paired with its reported residual activity value.
Your answer should be a plain number; it is taken to be in %.

{"structure-string": "COc1cc2ncn(-c3cc(OCc4ccccc4S(C)(=O)=O)c(C#N)s3)c2cc1OC", "units-symbol": "%", "number": 93}
{"structure-string": "O=C(NCCCNc1nc(Nc2cccc(CN3CCOCC3)c2)ncc1C1CC1)C1CCC1", "units-symbol": "%", "number": 90}

Please look at the following compound next.
Request: Write down residual activity measured for item NCC(=O)Nc1ccc(-n2nc(C(F)(F)F)cc2-c2ccc3c(ccc4ccccc43)c2)cc1
Response: 115
